molecular target: KRas G12C (Homo sapiens, UniProt P01116, G12C); construct: NCI-H358 cells (ATCC CRL-5807) express KRas G12C; assay: Inhibition of KRas G12C-dependent cell growth: Phospho-ERK in NCI-H358 cells; settings: NCI-H358 cells expressing KRas G12C; Phospho-ERK (Thr202/Tyr204) normalized to GAPDH; 3 hours compound; 4 parameter fit
Sequence (P01116 1-188 isoform P01116-2 G12C): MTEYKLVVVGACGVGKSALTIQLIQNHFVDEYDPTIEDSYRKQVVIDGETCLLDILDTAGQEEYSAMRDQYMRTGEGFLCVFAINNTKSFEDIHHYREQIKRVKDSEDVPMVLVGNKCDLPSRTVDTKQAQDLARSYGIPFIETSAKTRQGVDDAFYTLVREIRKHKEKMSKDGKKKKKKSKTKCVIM
pIC50: −log10 of the molar value.
Hi, to clarify the labels: true (1) covers pIC50 from 8 upward, false (0) covers anything below 8.

INSERT INTO results (compound, target_under_test, label_class) VALUES
  ('C=C(F)C(=O)N1CCN(c2nc(OC[C@@H]3CCN(C)C3)nc3c(F)c(-c4cccc5ccc(F)c(Cl)c45)ncc23)C[C@@H]1CC#N', 'KRas G12C (Homo sapiens, UniProt P01116, G12C)', 'false (0)');

API: above_or_equal(metric=pIC50, cutoff=8) for item `CO[C@@H]1C[C@@H](COc2nc(N3CCN(C(=O)/C=C/CF)[C@@H](CC#N)C3)c3cnc(-c4cccc5cccc(C)c45)c(F)c3n2)N(C)C1`
false (0)

API: above_or_equal(metric=pIC50, cutoff=8) for item `C=CC(=O)N1CCN(c2nc(OC[C@@H]3CCCN3C)nc3c(F)c(-c4cncc5cccc(Cl)c45)ncc23)CC1`
false (0)

API: above_or_equal(metric=pIC50, cutoff=8) for item `C=CC(=O)N1CCN(c2ncnc3c(F)c(-c4c[n+]([O-])cc5ccccc45)ncc23)CC1`
false (0)

API: above_or_equal(metric=pIC50, cutoff=8) for item `Cc1cccc2cncc(-c3ncc4c(N5CCN(C(=O)/C=C/CF)[C@@H](CC#N)C5)nc(OC[C@@H]5CC(F)(F)CN5C)nc4c3F)c12`
false (0)

API: above_or_equal(metric=pIC50, cutoff=8) for item `C=CC(=O)N1CC[C@@H]2[C@H]1CN2c1nc(OCC23CCCN2CCC3)nc2c(F)c(-c3cccc4ccc(F)c(Cl)c34)ncc12`
true (1)

API: above_or_equal(metric=pIC50, cutoff=8) for item `C=C(F)C(=O)N1CCN(c2nc(OC[C@@H]3CCCN3CCF)nc3c(F)c(-c4cccc5ccc(F)c(Cl)c45)ncc23)C[C@@H]1CC#N`
false (0)

API: above_or_equal(metric=pIC50, cutoff=8) for item `C=CC(=O)N1C[C@@H]2[C@H]1CCN2c1nc(C)nc2c(F)c(-c3cccc4ccc(F)c(Cl)c34)ncc12`
false (0)

---

target: KRas G12C (Homo sapiens, UniProt P01116, G12C); construct: NCI-H358 cells (ATCC CRL-5807) express KRas G12C; test: Inhibition of KRas G12C-dependent cell growth: Phospho-ERK in NCI-H358 cells; details: NCI-H358 cells expressing KRas G12C; Phospho-ERK (Thr202/Tyr204) normalized to GAPDH; 3 hours compound; 4 parameter fit
readout: pIC50
Answers are plain numbers, as −log10 of the molar value.

Sample answers from the record:
INSERT INTO measurements (molecule, reported_measurement) VALUES
  ('C=C(F)C(=O)N1CCN(c2nc(OC[C@H]3CN(C)C[C@H]3F)nc3c(F)c(-c4cccc5ccc(F)c(Cl)c45)ncc23)C[C@@H]1CC#N', 7.17),
  ('C=CC(=O)N1CC[C@@H]2[C@H]1CN2c1nc(N(CC)CC)nc2c(F)c(-c3cccc4ccc(F)c(Cl)c34)ncc12', 5.00),
  ('C=C(F)C(=O)N1CCN(c2nc(OC3CCN(C4CCOCC4)CC3)nc3c(F)c(-c4cccc5cccc(Cl)c45)ncc23)C[C@@H]1CC#N', 6.42),
  ('C=CC(=O)N1CC[C@@H]2[C@H]1CN2c1ncnc2c(F)c(-c3cccc4cc(OC)ccc34)ncc12', 5.00),
  ('C=CC(=O)N1C2CCC1CN(c1ncnc3c(F)c(-c4cccc5ccc(F)c(Cl)c45)ncc13)C2', 5.00);

// batch mode: one pIC50 value per listed entry
1. C=C(F)C(=O)N1CCN(c2nc(OC[C@@H]3CCCN3C)nc3c(OCC(F)(F)F)c(-c4cccc5cccc(C)c45)ncc23)C[C@@H]1CC#N
2. C=C(F)C(=O)N1CCN(c2nc(OC[C@H]3CCCN3C)nc3c(F)c(-c4cccc5cccc(C)c45)ncc23)C[C@@H]1CC#N
3. C=CC(=O)N1CCN(c2nc(OC[C@@H]3CCCN3C)nc3c(F)c(-c4c(C)ccc5[nH]ncc45)ncc23)[C@@H](C)C1
4. C=CC(=O)N1CCN(c2ncnc3c(F)c(-c4cccc5ccc(F)c(Cl)c45)ncc23)CC1
5. C=CC(=O)N1CCN(c2nc(N3CCC3)nc3c(F)c(-c4cccc5ccc(F)c(Cl)c45)ncc23)C[C@@H]1CC#N
6. C=C(F)C(=O)N1CCN(c2nc(OC[C@@H]3CC(F)(F)CN3C(C)C)nc3c(F)c(-c4cccc5ccc(F)c(Cl)c45)ncc23)C[C@@H]1CC#N
7. C=CC(=O)N1CC[C@@H]2[C@H]1CN2c1nc(OC[C@@H]2[C@@H]3C[C@@H]3CN2C)nc2c(F)c(-c3cccc4ccc(F)c(Cl)c34)ncc12
8. C=CC(=O)N1CC[C@@H]2[C@H]1CN2c1nc(N(C)C)nc2c(F)c(-c3cccc4ccc(F)c(Cl)c34)ncc12

[5.55, 6.93, 6.17, 5.00, 7.13, 6.48, 7.54, 5.35]

// batch mode: one pIC50 value per listed entry
1. C=C(F)C(=O)N1CCN(c2nc(OCC34CCCN3C(CO)CC4)nc3c(F)c(-c4cccc5ccc(F)c(Cl)c45)ncc23)C[C@@H]1CC#N (some centres unmarked)
2. C=CC(=O)N1CCN(c2ncnc3c(F)c(-c4cccc5ccc(F)c(Cl)c45)ncc23)[C@H](C)C1
3. C=CC(=O)N1CC[C@@H]2[C@H]1CN2c1nc(OC2COC2)nc2c(F)c(-c3cccc4ccc(F)c(Cl)c34)ncc12
4. C=CC(=O)N1CCN(c2nc(C)nc3c(F)c(-c4cccc5cccc(Cl)c45)ncc23)CC1
5. COC/C=C/C(=O)N1CCN(c2nc(OC[C@@H]3CCCN3C)nc3c(F)c(-c4cccc5cccc(C)c45)ncc23)C[C@@H]1CC#N
6. C=C(F)C(=O)N1CCN(c2nc(OC[C@H]3[C@H](F)CCN3C)nc3c(F)c(-c4cccc5ccc(F)c(Cl)c45)ncc23)C[C@@H]1CC#N

1: 6.92; 2: 5.00; 3: 5.83; 4: 5.00; 5: 7.15; 6: 7.19

// batch mode: one pIC50 value per listed entry
1. C=CC(=O)N1CCN(c2ncnc3c(F)c(-c4c(C)c(C)cc5[nH]ncc45)ncc23)CC1
2. C=CC(=O)N1CCN(c2ncnc3c(F)c(-c4c(Cl)c(C)cc5[nH]ncc45)ncc23)C[C@@H]1CC#N

[5.10, 6.73]

// batch mode: one pIC50 value per listed entry
1. C=CC(=O)N1CCN(c2ncnc3c(F)c(-c4cccc5cccc(Cl)c45)ncc23)CC1
2. C=CC(=O)N1CC[C@@H]2[C@H]1CN2c1nc(OC[C@@H]2CC(F)(F)CN2C)nc2c(F)c(-c3cccc4ccc(F)c(Cl)c34)ncc12
3. N#CC[C@H]1CN(c2nc(OCCCN3C[C@@H]4C[C@H]3CO4)nc3c(F)c(-c4cccc5cccc(Cl)c45)ncc23)CCN1C(=O)/C=C/CF

5.47
6.94
7.48

// batch mode: one pIC50 value per listed entry
1. C=CC(=O)N1CCCC12CCN(c1ncnc3c(F)c(-c4cccc5ccc(F)c(Cl)c45)ncc13)C2 (centres unmarked)
2. N#CC[C@H]1CN(c2ncnc3c(F)c(-c4cccc5ccc(F)c(Cl)c45)ncc23)CCN1C(=O)/C=C/C(F)F

1. 5.00
2. 7.12
